assay: Solubility in solvents/excipients; format: physicochemical; details: dimethyl isosorbide (DMI), organic solvent or mixture
Measured quantity: solubility (mg/mL)
Your answer should be a plain number; it is taken to be in mg/mL.

Q. # input molecule: CCCCC/C=C\C/C=C\CCCCCCCCOC(=O)NCCCC(=O)N[C@H]1C[C@H](O[C@H]2C[C@](O)(C(=O)CO)Cc3c(O)c4c(c(O)c32)C(=O)c2c(OC)cccc2C4=O)O[C@@H](C)[C@H]1O ; wanted: its solubility
A. 490

---

Test: Toxicology: maximum tolerated dose, i.v. Q3D×5
Conditions: nude, mouse, in vivo, iv; i.v. 5 times on a once every three day schedule
Description: The dosing schedule was Q3D×5.
Measured quantity: MTD

Q. # input compound: COc1cccc2c1C(=O)c1c(O)c3c(c(O)c1C2=O)C[C@@](O)(C(=O)CO)C[C@@H]3O[C@H]1C[C@H](N)[C@H](O)[C@H](C)O1 [Doxorubicin, reference compound] ; wanted: its MTD
A. ~6 mg/kg

---

assay: Solubility in solvents/excipients; type: physicochemical; conditions: aqueous with cosolvent or surfactant or cyclodextrin; Cremophor ® EL-P:ethanol:saline (10:10:80)
Measured quantity: solubility (mg/mL)
Your answer should be a plain number; it is taken to be in mg/mL.

Q. # input compound: CCCCC/C=C\C/C=C\CCCCCCCCOC(=O)NCCCC(=O)N[C@H]1C[C@H](O[C@H]2C[C@](O)(C(=O)CO)Cc3c(O)c4c(c(O)c32)C(=O)c2c(OC)cccc2C4=O)O[C@@H](C)[C@H]1O ; wanted: its solubility
A. 16.8

---

Quick reference: MTD of the listed items.
test: Toxicology: maximum tolerated dose, i.v. Q3D×5; conditions: mouse, in vivo, iv; i.v. 5 times on a once every three day schedule

[[record]]
compound = "COc1cccc2c1C(=O)c1c(O)c3c(c(O)c1C2=O)C[C@@](O)(C(=O)CO)C[C@@H]3O[C@H]1C[C@H](N)[C@H](O)[C@H](C)O1 [Doxorubicin, reference compound]"
measured_quantity = "MTD"
recorded_result = "6 mg/kg"


Q. # input compound: CCCCC/C=C\C/C=C\CCCCCCCCOC(=O)NCCCC(=O)N[C@H]1C[C@H](O[C@H]2C[C@](O)(C(=O)CO)Cc3c(O)c4c(c(O)c32)C(=O)c2c(OC)cccc2C4=O)O[C@@H](C)[C@H]1O ; wanted: its MTD
A. 50 to 75 mg/kg

---

assay: Solubility in solvents/excipients; type: physicochemical; settings: ethanol, organic solvent or mixture
Measured quantity: solubility (mg/mL)
Your answer should be a plain number; it is taken to be in mg/mL.

Q. # input compound: CCCCC/C=C\C/C=C\CCCCCCCCOC(=O)NCCCC(=O)N[C@H]1C[C@H](O[C@H]2C[C@](O)(C(=O)CO)Cc3c(O)c4c(c(O)c32)C(=O)c2c(OC)cccc2C4=O)O[C@@H](C)[C@H]1O ; wanted: its solubility
A. 252
